Test system: Bovine brain tubulin
Test: Inhibition of tubulin assembly
Assay type: biochemical
Conditions: read-out: Tubulin assembly IC50; 10 μM tubulin; mean ±SD of at least two determinations

{"columns": ["molecule", "unit.abbreviation", "IC50"],
 "data": [
  ["COc1cc2c(cc1OS(N)(=O)=O)CC(C)N(Cc1cc(Br)c(OC)c(OC)c1)C2 (racemic) [Compound 12j]", "nM", 2400],
  ["COc1cc2c(cc1OS(N)(=O)=O)CCN(Cc1cc(Cl)c(OC)c(OC)c1)C2 [Compound 12e]", "nM", 5600],
  ["CCc1cc2c(cc1OS(N)(=O)=O)CCN(Cc1cc(Br)c(OC)c(OC)c1)C2", "nM", 1800],
  ["COc1cc2c(cc1OS(N)(=O)=O)CCN(Cc1cc(Br)c(OC)c(OC)c1)C2 [Compound 12f]", "nM", 2400],
  ["COc1cc(CN2CCc3cc(O)ccc3C2)cc(OC)c1OC [Compound 20b]", "nM", 1600]
]}
